tested on: C. albicans 56214; details: 56214, 48 h, pH 7
No end group written: not given here.
Measured Quantity: MIC

Reported MIC ( KIGKWLLWKGIKKIGKWL-NH2 [KW3] ) = 4 µM

Reported MIC ( RIGRFLLFRGIRRIGRFL-NH2 [RF3] ) = 4 µM

Reported MIC ( RIGRVLLVRGIRRIGRVL-NH2 [RV3] ) = 16 µM

Reported MIC ( KIGKFLLFKGIKKIGKFL-NH2 [KF3] ) = 16 µM

Reported MIC ( KIGKVL-NH2 [KV] ) = >64 µM

Reported MIC ( KIGKVLLVKGIKKIGKVL-NH2 [KV3] ) = 32 µM

Reported MIC ( RIGRWLLWRGIRRIGRWL-NH2 [RW3] ) = 2 µM

Reported MIC ( KIGKVLLVKGIK-NH2 [KV2] ) = >64 µM

----------
Field: MFC. Provide a value for each of the substances that follow.
tested on: C. albicans cgmcc 2.2086; experiment: Antifungal activity assay (broth microdilution, MIC/MFC); assay type: cell-based, Candida albicans; conditions: 50 μl of MIC wells plated on YPD agar, 28°C, 48 h; lowest concentration that completely killed fungal cells; consensus of at least three independent experiments
No end group written: not given here.
Field: numeric (µM). Do not append units.

Reported MFC ( RIGRWLLWRGIRRIGRWL-NH2 [RW3] ) = 4

Reported MFC ( KIGKFLLFKGIKKIGKFL-NH2 [KF3] ) = 32

Reported MFC ( RIGRFLLFRGIRRIGRFL-NH2 [RF3] ) = 8

Reported MFC ( KIGKWLLWKGIKKIGKWL-NH2 [KW3] ) = 8

Reported MFC ( RIGRVLLVRGIRRIGRVL-NH2 [RV3] ) = 32

----------
Field: IC50. Provide a value for each of the substances that follow.
test system: IPEC-J2 cells; conditions: 24 h
No end group written: not given here.
Field: numeric (µM). Do not append units.

Reported IC50 ( KIGKFLLFKGIKKIGKFL-NH2 [KF3] ) = 48.5

Reported IC50 ( RIGRFLLFRGIRRIGRFL-NH2 [RF3] ) = 59.8

----------
Field: MFC. Provide a value for each of the substances that follow.
system: C. albicans 14936; conditions: 14936, 48 h
No end group written: not given here.
Field: numeric (µM). Do not append units.

Reported MFC ( RIGRWLLWRGIRRIGRWL-NH2 [RW3] ) = 4

Reported MFC ( RIGRVLLVRGIRRIGRVL-NH2 [RV3] ) = 32

Reported MFC ( RIGRFLLFRGIRRIGRFL-NH2 [RF3] ) = 8

Reported MFC ( KIGKFLLFKGIKKIGKFL-NH2 [KF3] ) = 64

Reported MFC ( KIGKWLLWKGIKKIGKWL-NH2 [KW3] ) = 8

----------
test system: C. parapsilosis cgmcc 2.3989; assay: Antifungal activity assay (broth microdilution, MIC/MFC); assay type: cell-based, Candida parapsilosis; conditions: 50 μl of MIC wells plated on YPD agar, 28°C, 48 h; lowest concentration that completely killed fungal cells; consensus of at least three independent experiments
No end group written: not given here.
Field: MFC. Provide a value for each of the substances that follow.
Field: numeric (µM). Do not append units.

Reported MFC ( RIGRVLLVRGIRRIGRVL-NH2 [RV3] ) = 32

Reported MFC ( RIGRFLLFRGIRRIGRFL-NH2 [RF3] ) = 16

Reported MFC ( KIGKFLLFKGIKKIGKFL-NH2 [KF3] ) = 32

Reported MFC ( RIGRWLLWRGIRRIGRWL-NH2 [RW3] ) = 4

Reported MFC ( KIGKWLLWKGIKKIGKWL-NH2 [KW3] ) = 8
